# Tested on: P. falciparum 3D7 schizonts
# TEST_NAME: Short-term egress/invasion assay, ring formation by flow cytometry
# Type: cell-based, Plasmodium falciparum
# TEST_CONTEXT: Plasmodium falciparum; mature 3D7 schizonts with RBCs, 4 h, flow cytometry
pEC50: −log10 of the molar value.
# pEC50 per record follows

- COMPOUND: "CC(=O)N[C@H](C(=O)N[C@@H](C)C(=O)NCC(=O)N[C@@H](C)B(O)O)C1CCCC1"
  pEC50: 5.70
- COMPOUND: "CC(=O)NC(C(=O)NC(C(=O)NCC(=O)NC(C)B(O)O)C(C)O)C1CCCC1 (stereo not shown)"
  pEC50: 4.90
- COMPOUND: "CC(=O)NC(C(=O)NC(C(=O)NCC(=O)NC(C)B(O)O)C(C)C)C1CCCC1 (stereo not shown)"
  pEC50: 5.60
- COMPOUND: "CC(=O)N[C@H](C(=O)N[C@H](C(=O)NCC(=O)N[C@H]1CCOB1O)[C@@H](C)O)C1CCCC1"
  pEC50: 4.80

---

# SUBJECT_OF_TEST: trypsin (Bos taurus)
# Sequence (P00760 24-246): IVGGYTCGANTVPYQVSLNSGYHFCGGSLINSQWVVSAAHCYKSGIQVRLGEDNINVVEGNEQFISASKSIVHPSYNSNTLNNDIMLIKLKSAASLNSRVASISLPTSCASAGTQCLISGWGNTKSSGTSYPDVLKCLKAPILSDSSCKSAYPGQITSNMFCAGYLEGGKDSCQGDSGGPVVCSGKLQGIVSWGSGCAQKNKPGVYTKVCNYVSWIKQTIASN
pIC50: −log10 of the molar value.

- COMPOUND: "CC(=O)NC(C(=O)NC(C(=O)NCC(=O)NC(C)B(O)O)C(C)C)C1CCCC1 (stereo not shown)"
  pIC50: "< 5.00"

---

# SUBJECT_OF_TEST: α-chymotrypsin (Bos taurus, UniProt P00766)
pIC50: −log10 of the molar value.
MEASURED_ENDPOINT: pIC50

- MOLECULE: "CC(=O)NC(C(=O)NC(C(=O)NCC(=O)NC(C)B(O)O)C(C)C)C1CCCC1 (stereo not shown)"
  SUBJECT_OF_TEST: "α-chymotrypsin (Bos taurus, UniProt P00766)"
  REPORTED_VALUE: "< 3.70"

---

# Tested on: asexual blood-stage P. falciparum (clone 3D7)
# TEST_NAME: SYBR Green I parasite growth assay
# Type: cell-based, Plasmodium falciparum
# TEST_CONTEXT: Plasmodium falciparum, 3D7; 96 h, two erythrocytic growth cycles, SYBR Green I
Rule: EC50 below 2 µM gives 1, anything at or above gives 0.

- COMPOUND: "CC(=O)N[C@H](C(=O)N[C@H](C(=O)NCC(=O)N[C@H](C)B(O)O)[C@@H](C)O)C1CCCC1 [3c]"
  SUBJECT_OF_TEST: "asexual blood-stage P. falciparum (clone 3D7)"
  GROUP_LABEL: 0
- COMPOUND: "CC(=O)NC(C(=O)NC(C(=O)NCC(=O)NC(C)B(O)O)C(C)C)C1CCCC1 (stereo not shown) [3j]"
  SUBJECT_OF_TEST: "asexual blood-stage P. falciparum (clone 3D7)"
  GROUP_LABEL: 1
- COMPOUND: "CC(=O)N[C@H](C(=O)N[C@H](C(=O)NCC(=O)N[C@H]1CCOB1O)[C@@H](C)O)C1CCCC1 [3e]"
  SUBJECT_OF_TEST: "asexual blood-stage P. falciparum (clone 3D7)"
  GROUP_LABEL: 0
- COMPOUND: "CC(=O)N[C@H](C(=O)N[C@H](C(=O)NCC(=O)NCB(O)O)[C@@H](C)O)C1CCCC1 [3d]"
  SUBJECT_OF_TEST: "asexual blood-stage P. falciparum (clone 3D7)"
  GROUP_LABEL: 1
- COMPOUND: "CC(=O)NC(C(=O)NC(C(=O)NCC(=O)NC(C)B(O)O)C(C)O)C1CCCC1 (stereo not shown) [3b]"
  SUBJECT_OF_TEST: "asexual blood-stage P. falciparum (clone 3D7)"
  GROUP_LABEL: 0
- COMPOUND: "CCC(C)[C@H](NC(C)=O)C(=O)N[C@H](C(=O)NCC(=O)N[C@@H](C)B(O)O)[C@@H](C)O (stereo partly shown) [3a]"
  SUBJECT_OF_TEST: "asexual blood-stage P. falciparum (clone 3D7)"
  GROUP_LABEL: 1
- COMPOUND: "CC(=O)N[C@H](C(=O)N[C@@H](C)C(=O)NCC(=O)N[C@@H](C)B(O)O)C1CCCC1 [3i]"
  SUBJECT_OF_TEST: "asexual blood-stage P. falciparum (clone 3D7)"
  GROUP_LABEL: 1

---

# SUBJECT_OF_TEST: recombinant PfSUB1 (rPfSUB1) (Plasmodium falciparum, UniProt Q8I0V0)
# Construct: Chymotrypsin-treated rPfSUB1 (expressed and purified as described previously); made in house
# Sequence (Q8I0V0 218-688): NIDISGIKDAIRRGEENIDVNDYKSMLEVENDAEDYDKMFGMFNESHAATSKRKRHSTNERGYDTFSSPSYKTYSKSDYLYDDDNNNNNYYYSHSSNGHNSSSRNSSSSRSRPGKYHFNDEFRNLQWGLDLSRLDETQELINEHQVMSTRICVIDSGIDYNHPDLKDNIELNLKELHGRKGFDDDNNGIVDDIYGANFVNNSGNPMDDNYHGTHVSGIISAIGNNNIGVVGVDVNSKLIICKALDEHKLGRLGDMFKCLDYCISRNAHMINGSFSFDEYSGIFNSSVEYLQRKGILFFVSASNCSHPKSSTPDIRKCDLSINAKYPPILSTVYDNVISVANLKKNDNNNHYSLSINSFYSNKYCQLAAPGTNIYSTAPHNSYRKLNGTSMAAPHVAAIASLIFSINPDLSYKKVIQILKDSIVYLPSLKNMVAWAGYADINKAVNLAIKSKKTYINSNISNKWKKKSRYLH
# TEST_NAME: rPfSUB1 fluorogenic peptide substrate cleavage inhibition assay
# Type: biochemical
# TEST_CONTEXT: fluorogenic peptide substrate; mean ± SD of at least three measurements; read-out: IC50 (nM) (rPfSUB1)
# Description: We previously described the development of a fluorescence-based in vitro assay suitable for the evaluation of substrate-based PfSUB1 inhibitors, using recombinant PfSUB1 (rPfSUB1) and fluorogenic peptide substrates based on cleavage sites within endogenous protein substrates of PfSUB1 ([13], [21]). […] Fluorescence of this peptide is quenched by rhodamine dimerization in the intact substrate but increases upon cleavage at the internal Q-D bond. […]
Rule: IC50 below 60 nM gives 1, anything at or above gives 0.

- MOLECULE: "CC(=O)N[C@H](C(=O)N[C@H](C(=O)NCC(=O)N[C@H]1CCOB1O)[C@@H](C)O)C1CCCC1 [3e]"
  GROUP_LABEL: 1
- MOLECULE: "CC(=O)NC(C(=O)NC(C(=O)NCC(=O)NC(C)B(O)O)C(C)O)C1CCCC1 (centres unmarked) [3b]"
  GROUP_LABEL: 1
- MOLECULE: "CC(=O)N[C@H](C(=O)N[C@H](C(=O)NCC(=O)NC(B(O)O)c1ccccc1)[C@@H](C)O)C1CCCC1 (some centres unmarked) [3h]"
  GROUP_LABEL: 0
- MOLECULE: "CC(=O)N[C@H](C(=O)N[C@H](C(=O)NCC(=O)N[C@H]1CCC(=O)OB1O)[C@@H](C)O)C1CCCC1 [3g]"
  GROUP_LABEL: 1
- MOLECULE: "CC(=O)N[C@H](C(=O)N[C@H](C(=O)NCC(=O)N[C@H]1CCCOB1O)[C@@H](C)O)C1CCCC1 [3f]"
  GROUP_LABEL: 0
- MOLECULE: "CCC(C)[C@H](NC(C)=O)C(=O)N[C@H](C(=O)NCC(=O)N[C@@H](C)B(O)O)[C@@H](C)O (some centres unmarked) [3a]"
  GROUP_LABEL: 0
- MOLECULE: "CC(=O)N[C@H](C(=O)N[C@H](C(=O)NCC(=O)NCB(O)O)[C@@H](C)O)C1CCCC1 [3d]"
  GROUP_LABEL: 1
